B1: EEHEE_rd4_0469 (parent)
chain: ITIHVNGVTYHFDNPEEAEKFAQKMAKTYQLKMEIHNGEFHME

- Variants of: B1
- assayMethodText: folding stability dG (cDNA display proteolysis); higher = more stable
- conditionParameters: PBS, room temperature
assayReadout: folding stability dG (kJ/mol)

ITIHVWGVTYHFDNPEEAEKFAQKMAKTYQLKMEIHNGEFHME [N6W] ... 7.88
ITIHVNGVTYHFDNPEEAEKFAQKMAKTYQLKMEIHNGELHME [F40L] ... 5.72
ITIHVNGVTYHFDNPEEAEKFAQKMLKTYQLKMEIHNGEFHME [A26L] ... 5.21
ITIHVNGVTYHFDKPEEAEKFAQKMAKTYQLKMEIHNGEFHME [N14K] ... 4.59
ITIHVNGVTYHFDNPEAAEKFAQKMAKTYQLKMEIHNGEFHME [E17A] ... 4.83
ITIHVNGVTYHIDNPEEAEKFAQKMAKTYQLKMEIHNGEFHME [F12I] ... 1.47
ITIHVNGVGYHFDNPEEAEKFAQKMAKTYQLKMEIHNGEFHME [T9G] ... 4.65
ITILVNGVTYHFDNPEEAEKFAQKMAKTYQLKMEIHNGEFHME [H4L] ... 3.93
ITIHVNGVTYHFDNPEEAEKFAQKMAKTYQLKMEIHLGEFHME [N37L] ... 4.55
ITIHVNGVTYHFDNPEEAEKFAQKMAKTYQLKMEIHNGEFHHE [M42H] ... 2.97
ITIHVNGVTYHFDNPEEAESFAQKMAKTYQLKMEIHNGEFHME [K20S] ... 4.81
ITIEVNGVTYHFDNPEEAEKFAQKMAKTYQLKMEIHNGEFHME [H4E] ... 2.9
ITIHVNGITYHFDNPEEAEKFAQKMAKTYQLKMEIHNGEFHME [V8I] ... 4.73
ITIHVNGVTYHFDNTEEAEKFAQKMAKTYQLKMEIHNGEFHME [P15T] ... 4.77
ITIHVNGVTYHPDNPEEAEKFAQKMAKTYQLKMEIHNGEFHME [F12P] ... -2.58
ITIHVDGVTYHFDNPEEAEKFAQKMAKTYQLKMEIHNGEFHME [N6D] ... 4.66
IHIHVNGVTYHFDNPEEAEKFAQKMAKTYQLKMEIHNGEFHME [T2H] ... 6.34
ITIHVNGVTYHFHNPEEAEKFAQKMAKTYQLKMEIHNGEFHME [D13H] ... 5.01
ITIHVNGVTYHFDNPEEAEKFAQKMAKTYQLKMEIVNGEFHME [H36V] ... 5.67
DTIHVNGVTYHFDNPEEAEKFAQKMAKTYQLKMEIHNGEFHME [I1D] ... 1.26
ITIHVNGVTYHFDNVEEAEKFAQKMAKTYQLKMEIHNGEFHME [P15V] ... 5.08
ITIHVNGVTYHFDNPEEAEKFAQKMAKTYQLKMEAHNGEFHME [I35A] ... 3.02
ITIHVNGVTYHFDNPEEAEKFAQKMAKTYQLKMEIHNGEFHRE [M42R] ... 2.87
IEIHVNGVTYHFDNPEEAEKFAQKMAKTYQLKMEIHNGEFHME [T2E] ... 3.33
ITIHVNGVFYHFDNPEEAEKFAQKMAKTYQLKMEIHNGEFHME [T9F] ... 3.87
ITIHVNGVTYHFDNPEEAEKFAQKMAKTYQLKMEISNGEFHME [H36S] ... 3.48
ITIHVNGVTYHFDNPELAEKFAQKMAKTYQLKMEIHNGEFHME [E17L] ... 4.96
ITIHVNGVTYHFDNPEEADKFAQKMAKTYQLKMEIHNGEFHME [E19D] ... 4.49
ITIHQNGVTYHFDNPEEAEKFAQKMAKTYQLKMEIHNGEFHME [V5Q] ... 1.05
ITIHVNGVTEHFDNPEEAEKFAQKMAKTYQLKMEIHNGEFHME [Y10E] ... -1.02
ITIHVNGVTYHFDNPEEAEKFAQKTAKTYQLKMEIHNGEFHME [M25T] ... 1.26
ITIHVNGVTYHFDNPEEAEKFAQKMAKEYQLKMEIHNGEFHME [T28E] ... 8.36
ITIHVNGVTYHFDNPEEAEKFCQKMAKTYQLKMEIHNGEFHME [A22C] ... 7.36
ITIHVNGVTYHFDNPEEAEKFAQKMAKTYQLKMQIHNGEFHME [E34Q] ... 4.15
ITIHVNGVTYHFDNPEEAEKFAQGMAKTYQLKMEIHNGEFHME [K24G] ... 2.7
TTIHVNGVTYHFDNPEEAEKFAQKMAKTYQLKMEIHNGEFHME [I1T] ... 3.46
ITIHVNGVTYHFDNPEEAEKFAQKMAKTYQLKMEIHNGEFHMI [E43I] ... 8.47
ITIHVNGVTYHFDNPEEAEKFAQKMAKTYQLKSEIHNGEFHME [M33S] ... 1.8
ITIHVNGETYHFDNPEEAEKFAQKMAKTYQLKMEIHNGEFHME [V8E] ... 4.58
ITIHVNGVTYHFDNPEEAEKHAQKMAKTYQLKMEIHNGEFHME [F21H] ... 0.255
IMIHVNGVTYHFDNPEEAEKFAQKMAKTYQLKMEIHNGEFHME [T2M] ... 4.22
ITIHVNGVTYHFDNPEEAEKFAQKMAKTYQGKMEIHNGEFHME [L31G] ... 4.25
ITIHVNGVTYHFDNPEEAEKFAQKMAKTYQLNMEIHNGEFHME [K32N] ... 5.35
ITIHVNGVTYHFDNPEEAYKFAQKMAKTYQLKMEIHNGEFHME [E19Y] ... 6.68
ITIHVNGVTYHFDNPEEAEKFWQKMAKTYQLKMEIHNGEFHME [A22W] ... 3.94
ITIHVNGVTYHFDNPERAEKFAQKMAKTYQLKMEIHNGEFHME [E17R] ... 4.49
ITIHVNGVTYHFDNPEEAEKFAQKMAKTYQLKMEIHNGEFHMH [E43H] ... 6.12
ITIHVNGVTYHFDNPEEAEKFAQKMAKTYQLKMEIHNREFHME [G38R] ... 2.55
ITIHVNGVTYHFDNPEEAEIFAQKMAKTYQLKMEIHNGEFHME [K20I] ... 4.94
ITIHVNGVTYHFDNPEEAEKFAQKMAKTYQLKNEIHNGEFHME [M33N] ... 1.24
ITIHVNGVTYHFDNPEEAEKFAQKMAKTYQLKMEIINGEFHME [H36I] ... 6.95
ITIHVNGVTYHFDNPLEAEKFAQKMAKTYQLKMEIHNGEFHME [E16L] ... 4.97
ITIHVNGVTYHFDNPEEAEKFADKMAKTYQLKMEIHNGEFHME [Q23D] ... 4.14
ITIHVNGVTYHFDNPEEAEKFAQKMAKTYQLKMEIHNGTFHME [E39T] ... 3.5
ITIHVNGVTYHFDNPEEAEKFARKMAKTYQLKMEIHNGEFHME [Q23R] ... 5.64
ITIHVNGVTYHFDNPPEAEKFAQKMAKTYQLKMEIHNGEFHME [E16P] ... 2.92
ITIHVNGVTYHFDNPEEAEKFAQKMAKRYQLKMEIHNGEFHME [T28R] ... 6.9
ITIHVNGVTYHFDNPEEAEKFAQKMAKTYQLKMEIHNGEGHME [F40G] ... 2.68
QTIHVNGVTYHFDNPEEAEKFAQKMAKTYQLKMEIHNGEFHME [I1Q] ... 3.07
ITIHVNGVTYHFDTPEEAEKFAQKMAKTYQLKMEIHNGEFHME [N14T] ... 4.58
ITIHVNGVTYHSDNPEEAEKFAQKMAKTYQLKMEIHNGEFHME [F12S] ... -1.71
ITIHVNGVTYHFDNPEEAEKFAQKMAKTYQLKMEIPNGEFHME [H36P] ... 2.09
ITIHVNGVTYHFDNPEEAEKFAQKMAKTYQLKMSIHNGEFHME [E34S] ... 5.38
ITIHVNGVTYHFDNPEEAEKFAQKMAKTYQLKMEIHNGEFHMW [E43W] ... 7.62
ITIHVNGVTYHFDNPEEAEKFAQKMAKTYQLKMEIHNGEFHMA [E43A] ... 5
ITIHVNGVTYHFDNPEEAEKFAQKMAKTYDLKMEIHNGEFHME [Q30D] ... 4.52
ITIHVAGVTYHFDNPEEAEKFAQKMAKTYQLKMEIHNGEFHME [N6A] ... 5.43
ITIHVNGVTYHFDNPEEAEKFAQKMAMTYQLKMEIHNGEFHME [K27M] ... 5.1
ITIHVNGVTYHFDNPEEAEKFAQKMAKTYLLKMEIHNGEFHME [Q30L] ... 3.57
ITIHVNGVTYHFDNPEEAEKFAQKMAKTYQLKMEEHNGEFHME [I35E] ... 3.53
ITIHVNGVTYHFDNPEEAEKFAQKMAKTEQLKMEIHNGEFHME [Y29E] ... 6.69
ITIHVNGVTYHFDNPEEAEKFAQKMAKTYQLFMEIHNGEFHME [K32F] ... 6.04
ITIHVNGDTYHFDNPEEAEKFAQKMAKTYQLKMEIHNGEFHME [V8D] ... 4.23
ITIHVNGVTYHFDNPEEAEKFAQKMAKHYQLKMEIHNGEFHME [T28H] ... 6.07
ITIHVNGVTYHFDNPEECEKFAQKMAKTYQLKMEIHNGEFHME [A18C] ... 6.53
ITIHVNGVTYHFDNPEEAEKFAQKMAKTYQLKCEIHNGEFHME [M33C] ... 11
ITIHVNGVTYHFDNPEEAEKFAQKMTKTYQLKMEIHNGEFHME [A26T] ... 2.96
ITIHVNGVTYHFDNPEEAEKFAQKMAKTYQLKQEIHNGEFHME [M33Q] ... 1.47
ITIHVNGVTYHFDNPEEAEKFAQKMAKTYQLKMEIHNGEYHME [F40Y] ... 5.46
ITIHGNGVTYHFDNPEEAEKFAQKMAKTYQLKMEIHNGEFHME [V5G] ... 1.67
ITTHVNGVTYHFDNPEEAEKFAQKMAKTYQLKMEIHNGEFHME [I3T] ... 0.531
ITIHVNYVTYHFDNPEEAEKFAQKMAKTYQLKMEIHNGEFHME [G7Y] ... 5.28
ITIHVNGVTYHFDNPEEAEKFAQKMAKTYPLKMEIHNGEFHME [Q30P] ... 6.42
ITIHVNGVTYHFDNPEEAEKFAQKMAHTYQLKMEIHNGEFHME [K27H] ... 4.05
ITIHVNGVTYHFDNPEEAEKFAQKMAKTYQLKMEWHNGEFHME [I35W] ... 4.45

Entry source: the MegaScale stability set (Tsuboyama et al. 2023)
